# Tested on: human malignant melanoma cell A375
# assay: In vitro anticancer activity test (MTT cell proliferation)
# Format: cell-based
# conditions.used: A-375
measured.property: IC50

| molecule.smiles | measured.on | measured.property | experimental.result |
| --- | --- | --- | --- |
| O=C(CCl)Nc1ncc(-c2cc3c(cc2F)c(=O)c(C(=O)O)cn3C2CC2)cc1F | human malignant melanoma cell A375 | IC50 | 1 to 10 µM |

====

Listed next: entries and their corresponding inhibition at 40 µM.
# System: Hela
# assay: In vitro anticancer activity test (MTT cell proliferation)
# Format: cell-based
# conditions.used: Homo sapiens, average proliferation inhibition rate at the dosage of 40 μM, read-out: Hela Average inhibition rate %

| molecule | measured.on | inhibition at 40 µM |
| --- | --- | --- |
| Nc1cc(-c2c(F)cc3c(=O)c(C(=O)O)cn(C4CC4)c3c2Cl)ccn1 [Example 151] | Hela | ≥ 20% |
| O=C(CCl)Nc1ncc(-c2cc3c(cc2F)c(=O)c(C(=O)O)cn3C2CC2)cc1F [Example 135] | Hela | ≥ 50% |
| O=C(O)c1cn(C2CC2)c2cc(N3CCNCC3)c(F)cc2c1=O [Ciprofloxacin, reference compound] | Hela | ≤ 10% |
| COc1c(-c2ccc([S+]([O-])CCO)cc2)c(F)cc2c(=O)c(C(=O)O)cn(C3CC3)c12 (stereo not shown) [Example 86] | Hela | ≥ 20% |
| O=C(O)c1cn(C2CC2)c2c(Cl)c(-c3ccc(S(=O)(=O)NCCO)cc3)c(F)cc2c1=O [Example 89] | Hela | ≥ 20% |
| CCCCCNS(=O)(=O)c1ccc(-c2c(F)cc3c(=O)c(C(=O)O)cn(C4CC4)c3c2OC)cc1 [Example 80] | Hela | ≥ 50% |
| O=C(O)c1cn(C2CC2)c2cc(-c3ccc4c(c3)CNS4(=O)=O)c(F)cc2c1=O [Example 107] | Hela | ≥ 20% |
| COc1c(-c2ccnc(CO)c2)c(F)cc2c(=O)c(C(=O)O)cn(C3CC3)c12 [Example 148] | Hela | ≥ 20% |
| CCCCCCCNS(=O)(=O)c1ccc(-c2cc3c(cc2F)c(=O)c(C(=O)O)cn3C2CC2)cn1 [Example 128] | Hela | ≥ 20% |
| O=C(O)c1cn(C2CC2)c2cc(-c3ccc4c(c3)S(=O)(=O)NC4)c(F)cc2c1=O [Example 113] | Hela | ≥ 20% |
